- target.under.test: recombinant human GREM1 (hGREM1-His; C-terminal 10His tagged, R&D, #5190-GR) (human) (UniProt O60565)
- Sequence (O60565 other isoform, or with tags, fused parts or gaps limits assumed, form in doubt): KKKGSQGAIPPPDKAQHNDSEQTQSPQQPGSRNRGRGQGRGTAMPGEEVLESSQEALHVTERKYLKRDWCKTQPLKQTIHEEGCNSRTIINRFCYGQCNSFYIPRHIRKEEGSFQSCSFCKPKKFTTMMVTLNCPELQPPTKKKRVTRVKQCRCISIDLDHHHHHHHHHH
- assay.summary: BLI Octet, captured mAb, 100 nM GREM1 without vs with 5 uM heparin
measured.property: Reduction in Signal from Heparin at 30 sec (nm)
Give bare numbers, in nm.

H4H2895N (antibody, human IgG4, V domains shown) VH: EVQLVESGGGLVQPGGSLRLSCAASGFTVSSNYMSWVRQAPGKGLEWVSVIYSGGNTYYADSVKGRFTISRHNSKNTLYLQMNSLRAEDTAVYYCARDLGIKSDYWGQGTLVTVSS VL: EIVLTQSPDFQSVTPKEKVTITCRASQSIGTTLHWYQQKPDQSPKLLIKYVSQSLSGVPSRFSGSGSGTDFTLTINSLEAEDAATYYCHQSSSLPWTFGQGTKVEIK ... -0.07
H4H6251P (antibody, human IgG4, V domains shown) VH: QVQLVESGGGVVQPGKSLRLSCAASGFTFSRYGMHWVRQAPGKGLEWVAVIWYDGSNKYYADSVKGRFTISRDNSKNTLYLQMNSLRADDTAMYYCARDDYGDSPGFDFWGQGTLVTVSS VL: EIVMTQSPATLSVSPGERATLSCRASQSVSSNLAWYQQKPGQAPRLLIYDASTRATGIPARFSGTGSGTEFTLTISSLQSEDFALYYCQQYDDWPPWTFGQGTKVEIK ... 0.24

Okay, next one:
// recorded Reduction in Signal from Heparin at 30 sec for H4H2926N (antibody, human IgG4, V domains shown) VH: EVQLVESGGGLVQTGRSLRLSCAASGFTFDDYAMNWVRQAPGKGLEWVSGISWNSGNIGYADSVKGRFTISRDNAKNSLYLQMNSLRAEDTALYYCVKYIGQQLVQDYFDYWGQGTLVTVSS VL: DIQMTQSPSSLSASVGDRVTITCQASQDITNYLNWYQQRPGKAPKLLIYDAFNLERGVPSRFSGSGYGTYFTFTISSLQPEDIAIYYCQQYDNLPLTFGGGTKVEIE : 0.16
